Reference source: ChEMBL document CHEMBL1144103

Exercise: for every item that follows, state its recorded zone of inhibition at 10000 µg/mL.
# Test system: Microbotryum violaceum
# method.description: Antifungal activity against Ustilago violacea at 10 mg/mL by agar diffusion test
# Format: functional
# condition.context: read-out: IZ

[in] Any idea what zone of inhibition at 10000 µg/mL was measured for C[C@]12CCC[C@](C)(C(=O)O)[C@@H]1C=C[C@]1(O)COC(=O)C[C@H]21 ?
[out] 1 mm

[in] Param item = CO[C@H]1OC(=O)C=C2[C@@]13O[C@@H]3[C@H]1OC(=O)[C@@]3(C)CCC[C@@]2(C)[C@@H]13 ; retrieve measured zone of inhibition at 10000 µg/mL.
[out] 10 mm

[in] Returns the measured zone of inhibition at 10000 µg/mL for the input compound. Input: CO[C@H]1OC(=O)C=C2C1=C[C@H]1OC(=O)[C@@]3(C)CCC[C@@]2(C)[C@@H]13
[out] 30 mm

[in] Which zone of inhibition at 10000 µg/mL is reported for this compound? C[C@@]12CCC[C@]3(C)C4=CC(=O)O[C@@H](O)[C@]45O[C@@H]5[C@@H](OC1=O)[C@@H]23
[out] 1 mm
